pIC50 values for Ubiquitin carboxyl-terminal hydrolase 28 (Homo sapiens, UniProt Q96RU2) compiled from several publications are listed below.
pIC50: −log10 of the molar value.

[[record]]
compound_structure_string = "C[C@@H]1C[C@@H](NC(=O)COc2ccc(-c3nc(Cc4cccc(C(F)(F)F)c4)no3)cc2)CN1C#N"
measurement_label = "pIC50"
obs_value = "6.30 to 7.30"

[[record]]
compound_structure_string = "C[C@@H]1C[C@@H](NC(=O)COc2ccc(-c3nc(Cc4cccc(Cl)c4)no3)nc2)CN1C#N"
measurement_label = "pIC50"
obs_value = "< 6.00"

[[record]]
compound_structure_string = "O=C(O)c1cccc(-c2noc(Cc3ccc(Cl)c(Cl)c3)n2)c1"
measurement_label = "pIC50"
obs_value = "4.00 to 5.00"

[[record]]
compound_structure_string = "CCCc1nc2sc3c(NCc4ccc(Cl)c(Cl)c4)ncnc3c2c2c1CCC2"
measurement_label = "pIC50"
obs_value = "< 4.00"

[[record]]
compound_structure_string = "Cc1ccc(S(=O)(=O)Nc2ccccc2)cc1NC(=O)Cc1ccc2ccccc2c1"
measurement_label = "pIC50"
obs_value = "> 6.00"


Please supply pIC50 for each of the following items, keeping them in order.
1. CCCc1nc2sc(C(=O)NCCc3ccc(O)c(O)c3)c(N)c2c2c1CCC2
2. CCCc1nc2sc3c(NCCc4c[nH]c5ccccc45)ncnc3c2c2c1CCC2
3. Cc1ccc(S(=O)(=O)N(C)C)cc1NC(=O)Cc1cccc(C(F)(F)F)c1
4. Nc1ccc(-c2noc(Cc3ccc(Cl)c(Cl)c3)n2)cn1
5. Clc1ccc(-c2noc(Cc3ccc4ccccc4c3)n2)cn1
6. Cc1oc(Cc2cccc(Cl)c2)nc1-c1ccc(OCc2ccc(C(=O)N(C)C)cc2)cc1

> 6.00
5.00 to 6.00
5.00 to 6.00
> 6.00
> 6.00
> 7.30

Please supply pIC50 for each of the following items, keeping them in order.
1. Cc1oc(Cc2cccc(Cl)c2)nc1-c1ccc(/C=C/C(=O)N[C@@H]2C[C@@H](C)N(C#N)C2)cc1
2. Cc1ccc(S(=O)(=O)N(C)C)cc1NC(=O)Cc1ccc([N+](=O)[O-])cc1
3. CC(=O)N1CCN(C(=O)c2cc3cc(OCc4ccccc4)ccc3[nH]2)C[C@@H]1C(=O)N[C@H]1C[C@@H](C)N(C#N)C1
4. N#CN1C[C@H](NC(=O)COc2ccc(-c3nc(Cc4ccccc4)no3)cc2)C[C@H]1CF
5. CN(C)c1ccc(-c2noc(Cc3ccc(Cl)c(Cl)c3)n2)cn1

["6.30 to 7.30", "4.00 to 5.00", "6.30 to 7.30", "< 6.00", "< 4.00"]

Given the entry CN(C)S(=O)(=O)c1ccc2[nH]c(Cc3ccc(Cl)c(Cl)c3)nc2c1 , report its measured pIC50. < 4.00
